- System: Escherichia coli TOP10;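 also: peptides expressed intracellularly from a pBAD plasmid library in pooled LB shake-flask culture, induced with 0.3% L-arabinose, DNA abundance read by NGS, three biological replicates, DESeq2 with apeglm shrinkage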
- test_method_notes: shrunken log2 fold change of peptide-encoding DNA abundance (4.5 h post-induction vs induction); higher = less antimicrobial activity (less host growth inhibition)
- conditions: time post-induction: 4.5 h; library: site-saturation at positions 5, 18, 19, 20
measured_metric: shrunken log2 fold change

monomer_sequence=RRIRYRPPRLPRPRPRPPMTPRP endpoint_result=-0.456
monomer_sequence=RRIRPRPPRLPRPRPRPDNCPRP endpoint_result=-0.197
monomer_sequence=RRIRNRPPRLPRPRPRPVTRPRP endpoint_result=-0.124
monomer_sequence=RRIRNRPPRLPRPRPRPERPPRP endpoint_result=0.499
monomer_sequence=RRIRERPPRLPRPRPRPYQTPRP endpoint_result=-0.135
monomer_sequence=RRIRVRPPRLPRPRPRPTMTPRP endpoint_result=0.11
monomer_sequence=RRIRMRPPRLPRPRPRPCHFPRP endpoint_result=-0.0459
monomer_sequence=RRIRIRPPRLPRPRPRPVKDPRP endpoint_result=-0.00153
